Values compiled from patent US20250147035A1.

measurementTarget: T1, p…-Biotin
T1 sequence (peptide, phosphothreonine at 1; C-terminal Biotin): TAKLDEESILKQ
assayMethodText: Octet (BLI), fixed reagent concentration
Primed or numbered codes have the meaning given here. Where no end group is shown, it is not given here. [ ]: non-standard residue; d: D form. pS = N[C@@H](COP(=O)(O)O)C(=O)O; Biotin′ = not defined here
Entries and their Octet binding assay response
# answer = number (no unit)

PM10 (Human/MCPH1) (other) MSGRGKKPTRTLVMTSMPSEKQNVVIQVVDKLKGFSIAPDVCETTTHVLSGKPLRTLNVLLGIARGCWVLSYDWVLWSLELGHWISEEPFELSHHFPAAPLCRSECHLSAGPYRGTLFADQPAMFVSPASSPPVAKLCELVHLCGGRVSQVPRQASIVIGPYSGKKKATVKYLSEKWVLDSITQHKVCAPENYLLSQ; 1
PM19 (Human/RBM15) (other) MAPVASASPKLCLAWQGMLLLKNSNFPSNMHLLQGDLQVASSLLVEGSTGGKVAQLKITQRLRLDQPKLDEVTRRIKVAGPNGYAILLAVPGSSDSRSSSSSAASDTATSTQRPLRNLVSYLKQKQAAGVISLPVGGNKDKENTGVLHAFPPCEFSQQFLDSPAKALAKSEEDYLVMIIVRGFGFQI; 1
PM12 (Mycobacterium tuberculosis/FhaA) (other) MGSAGTSVTLQLDDGSGRTYQLREGSNIIGRGQDAQFRLPDTGVSRRHLEIRWDGQVALLADLNSTNGTTVNNAPVQEWQLADGDVIRLGHSEIIVRMH; 6.9

We next turn to a different binder, shown below.
input: Reported Octet binding assay response, binder PM21 (Human/PHF3) (other) MTFLARLNFIWKGFINMPSVAKFVTKAYPVSGSPEYLTEDLPDSIQVGGRISPQTVWDYVEKIKASGTKEICVVRFTPVTEEDQISYTLLFAYFSSRKRYGVAANNMKQVKDMYLIPLGATDKIPHPLVPFDGPGLELHRPNLLLGLIIRQKL : ____
output: 0.5
